system: OVCAR-4; test: NCI tumour cell line growth inhibition, 48 h
Calls of active or inactive are those of the source. Rule as the data show it: active = GI50 up to about 1.1 µM and inactive = higher.
measured attribute: GI50

compound | GI50
Cc1ccc(/C=C2\N=C(N3CCCC(CO)C3)NC2=O)cc1 (configuration not stated) | > 100 µM (inactive)

Which GI50 is reported for this compound? `CN1CCN(Cc2ccc(C(=S)Nc3ccccc3)s2)CC1`
54.1 µM (inactive)

Which GI50 is reported for this compound? `CC1(C)[C@@H](Cn2cnc3c(O)nc(N)nc32)CC[C@@]1(C)CO`
> 100 µM (inactive)

Which GI50 is reported for this compound? C=C(C)C1CC2=C(C(=O)OC)C=C(O2)C(C(=C)C)[C@@H]2OC(=O)/C(=C\C1O)[C@H]2N(C)C (some centres not stated)
5.64 µM (inactive)

Which GI50 is reported for this compound? C=CCCCCCCCCCOC1C=CC(O)C(CO)O1 (configuration not stated)
46.6 µM (inactive)

Which GI50 is reported for this compound? `Cc1cc(O)c2c(c1O)C(=O)c1c(O)ccc(O)c1C2=O`
> 100 µM (inactive)

Which GI50 is reported for this compound? CC1(C)OC(=O)C2(O1)C(=O)C1CCCCC12 (configuration not stated)
9.73 µM (inactive)

Which GI50 is reported for this compound? `COc1cc(Cc2cc(OC)c(OC)c(OC)c2)ccc1O`
82.2 µM (inactive)

Which GI50 is reported for this compound? COC(=O)C1=C(OC(=O)/C(=C/c2ccccc2)c2ccc(Cl)cc2Cl)C(C(=O)OC)[C@@]2(O)[C@@H](C(=O)OC)[C@H](C)C[C@@H]1[C@@H]2C(=O)OC (some centres not stated)
> 100 µM (inactive)

Which GI50 is reported for this compound? `N#Cc1ccc(C(=O)/C=C/c2ccc(O)c(O)c2)cc1`
12.4 µM (inactive)

Which GI50 is reported for this compound? `COC(=O)[C@H](Cc1ccccc1)NC(=O)/C(=C/C(C)C)NC(=O)[C@H](CCSC)NC=O`
> 100 µM (inactive)

Which GI50 is reported for this compound? `CN(C)CCCN1c2ccccc2C(C)(C)c2ccccc21`
13.9 µM (inactive)
